Test system: Candida albicans (C697)
Assay remarks: Microbroth susceptibility testing, yeast (MIC)
Format: cell-based
Experimental conditions: strain C697
Field: MIC. Provide a value for each of the compounds that follow.

CCOC(=O)C1CCCN(c2c(N3CCN(S(=O)(=O)c4c(F)cccc4F)CC3)cnn(-c3ccccc3)c2=O)C1 (centres unmarked)	1 to 5 µg/mL

I'm hoping you can list MIC for every compound here, please.
1. COc1ccc(Sc2c(N3CCN(S(=O)(=O)c4ccccc4)CC3)cnn(-c3ccccc3)c2=O)cc1
2. Cc1cccc(CN2CCN(c3cnn(-c4ccccc4)c(=O)c3SC(C)C)CC2)c1

["1 to 5 µg/mL", "5 to 50 µg/mL"]

Okay, here is my list. What is MIC for each of these?
1. O=c1c(OC2Cc3ccccc3C2)c(N2CCN(Cc3ccoc3)CC2)cnn1-c1ccccc1
2. CC(C)OCCCNc1c(N2CCN(S(=O)(=O)Cc3ccccc3)CC2)cnn(-c2ccccc2)c1=O
3. O=c1c(OC2Cc3ccccc3C2)c(N2CCN(Cc3cccs3)CC2)cnn1-c1ccccc1
4. O=c1c(OCc2ccccc2)c(N2CCN(Cc3c(Cl)cccc3Cl)CC2)cnn1-c1ccccc1
5. Cc1nc[nH]c1CN1CCN(c2cnn(-c3ccccc3)c(=O)c2SCc2ccccc2)CC1

1: 1 to 5 µg/mL; 2: 5 to 50 µg/mL; 3: 1 to 5 µg/mL; 4: 1 to 5 µg/mL; 5: 5 to 50 µg/mL

Look at each compound and report its MIC.
1. O=c1c(OCCC2CCCCC2)c(N2CCN(Cc3cccc(O)c3)CC2)cnn1-c1ccccc1
2. COc1ccc(CCOc2c(N3CCN(Cc4ccccc4O)CC3)cnn(-c3ccccc3)c2=O)cc1
3. O=c1c(SCc2ccccc2)c(N2CCN(Cc3cc(O)cc(O)c3)CC2)cnn1-c1ccccc1
4. CCOC(=O)C1CCCN(c2c(N3CCN(C(=O)c4c[nH]c5ccccc45)CC3)cnn(-c3ccccc3)c2=O)C1 (centres unmarked)
5. O=c1c(SCc2ccccc2)c(N2CCN(S(=O)(=O)c3ccccc3[N+](=O)[O-])CC2)cnn1-c1ccccc1
6. CCOC(=O)C1CCCN(c2c(N3CCN(C(=O)c4ccc5[nH]cnc5c4)CC3)cnn(-c3ccccc3)c2=O)C1 (centres unmarked)

1. 1 to 5 µg/mL
2. 5 to 50 µg/mL
3. 5 to 50 µg/mL
4. 5 to 50 µg/mL
5. 5 to 50 µg/mL
6. 5 to 50 µg/mL

----------
Test system: Candida albicans (C697)
Assay remarks: Microbroth susceptibility testing, yeast (MIC)
Format: cell-based
Experimental conditions: strain C697
Can you tell me MIC for the items I'm about to list?

CCOC(=O)C1CCCN(c2c(N3CCN(C(=O)CSc4nccc(C)n4)CC3)cnn(-c3ccccc3)c2=O)C1 (stereo not drawn)	5 to 50 µg/mL
COc1ccc(Sc2c(N3CCN(S(=O)(=O)c4cccs4)CC3)cnn(-c3ccccc3)c2=O)cc1	5 to 50 µg/mL

Next compound, please.
Tell me MIC reported for O=c1c(N2CCOCC2)c(N2CCN(S(=O)(=O)Cc3ccccc3)CC2)cnn1-c1ccccc1
1 to 5 µg/mL

Provenance of the data: patent US20100158992A1
